Data provenance is a protein production outcome set (Wang et al. 2014).

# assayName: label from the status in PepcDB records
readoutName: protein production

[[record]]
sequencechain = "MNDRSLGILLMFLTVIFWGISFVATKIILVYIPPITLGFIRFAIAAMILIVLIRNFPSYSKKDFLNLVLAGFLGITSYFLFENVALEYTTATNAALIAATVPIFYLMVSDLVERRIPSKIQYFGSLIGLFGVSILILNGRLILELNPIGDLLMIGAVLSWVLYTFVIQKLEKHDNLTVTRDITLIGVLLSVPFMLLEFGSKGVLDLGVFLNPPLTFAVLYLAIFCSAIAYLFWNMSIRLAGASTTNNGIYFIPIVAMIADSIILKNIPNIYATIGAVLVLFGVYISEKGDKLKIKL"
reportedresult = "failed"

[[record]]
sequencechain = "KRIQYSVITILVLLIAVILIYMFSPLSKIAHVNINGNNHVSTSKINKVLGVKNDSRMYTFSKKNAINDLEEDPLIKSVEIHKQLPNTLNVDITENEIIALVKYKGKYLPLLENGKLLKGSNDVKINDAPVMDGFKGTKEDDMIKALSEMTPEVRRYIAEVTYAPSKNKQSRIELFTTDGLQVIGDISTISKKMKYYPQMSQSLSRDSSGKLKTRGYIDLSVGA"
reportedresult = "failed"

[[record]]
sequencechain = "MPSDSLRVGVLTGGGDCPGINAALRAVTKSLTLQHDAEVLGFLDGFRGVVDRNVEPLHYRDVSGILTRGGTILGASNKADPFNYLPRGGADVSAQVMRTYRTLDLDALVAIGGDGTMSIAHRLTDLGVDIVGVPKTIDNDLVGTDRTVGFDTAVSTATDAIDRIHTTAQSHHRVMIVETMGRYSGWIALHAGVASGTDVILLPEIEYEVETVADVCRDRERSGQRFTIVAVAEGARRKEGDYVVQERGDEYTDSIRLGGISRVLADQLREHLDTSIRTTVLGHMQRGGSPTAYDRTLATTLGTRAATLVAEGTTGVMVAVQNDAFTQVPLDEIAGKTRTVPLDDPLIASGLDVGTSFGVAVSDLSEAASHSKPASPIQP"
reportedresult = "failed"


###

# assayName: label from the status in PepcDB records
readoutName: protein production

[[record]]
sequencechain = "MNNTKTYSKTSIALHWIVGLAFIGVFIIGAYLSDLPRGPEKMELVALHKSFGVLILLIALARVFWRIKEGAIPPASVMPAWQEKVAKAVHGLLLLATLAMPLSGIAMNIGGGRALEVFGYTLVAAGEKVVWLQELGAAVHKTAPPIIIAIVLLHIAAVLKHHLIDKDATMARMLGRG"
reportedresult = "failed"

[[record]]
sequencechain = "WWNWKGHEVHLDCFRNEKAPVKVILLHGVGTNGRQMSMILGGPLSKDGFETIAIDMPTYGVTKVKKGSVVKYDDWVDLACDYIDYEQQRDDRPIVLYGLSAGGMETYHVAAKNKKVKGIIGMTFLDQKNQQVRDETAKNLVMSRVGIPMAGIACNIGLENFKMKMSTASKMSALCNNEKVMEIFNRDKTSAANKASMRFLDSYGNYQPAMEPEDFDVCPILLTQPEQDKWTPLHLSTPFLNKIKKVDVKIVMLENGGHYPVEQPALDQMHDAIVEFIYKVTK"
reportedresult = "failed"

[[record]]
sequencechain = "MAQENPLWMRHCAISPDGTTIAFTYKGDIFTVPVSGGKATQITTNPAFDTTPIWSPDSKQIAFASDRMGSMDVFIVSKDGGEPRRLTTFSGGETPVAFTDAGHILFTADIMPSTEDAGFPSNGQFQQIYQIPVSGGRPVMFSSMPMECISINKEGTILYQDKKGYEDYWRKHQKSPIARDIWMLRPGQTPRYEKQTTFIGEDREPVWAPDGKSFYYLSEENGTFNVYQRTPGSDTSKQVTHHKQHPVRFLEHHHHHH"
reportedresult = "failed"

